# subject.of.test: T1, human PD-L1 (construct not stated) (human, UniProt Q9NZQ7 19-239, limits assumed)
# T1 construct: also called B7-H1 (PD-L1); PD-L1 protein
# protocol.description: BLI Octet Red 96, affinity ranking
Reported koff values for the following binders.
Write down the numeric answer in s⁻¹ and omit the unit.

Would you please look over these solved cases?
binder	unit.of.measurement	koff
Hu1210-15 (antibody, V domains shown, Hu1210 VH.4 x Vk.1; human gamma 1 / kappa constant domains) VH: EVQLVESGGGLVQPGGSLRLSCAASGFTFSSYDMSWVRQAPGKGLEWVSTISDGGGYIYYSDSVKGRFTISRDNAKNSLYLQMNSLRDEDTAVYYCAREFGKRYALDYWGQGTTVTVSS VL: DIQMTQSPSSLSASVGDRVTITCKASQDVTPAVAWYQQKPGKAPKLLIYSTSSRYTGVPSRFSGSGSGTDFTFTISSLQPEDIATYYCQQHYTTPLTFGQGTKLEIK	s⁻¹	0.00035
Hu1210-22 (antibody, V domains shown, Hu1210 VH.4b x Vk.1a; human gamma 1 / kappa constant domains) VH: EVQLVESGGGLVQPGGSLRLSCAASGFTFSSYDMSWVRQAPGKSLEWVATISDGGGYIYYSDSVKGRFTISRDNAKNSLYLQMNSLRDEDTAVYICAREFGKRYALDYWGQGTTVTVSS VL: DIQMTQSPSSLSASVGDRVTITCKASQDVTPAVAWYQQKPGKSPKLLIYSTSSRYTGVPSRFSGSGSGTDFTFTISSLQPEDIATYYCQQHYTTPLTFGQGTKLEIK	s⁻¹	0.00023

Short answer for Hu1210-2 (antibody, V domains shown, Hu1210 VH.1a x Vk.1; human gamma 1 / kappa constant domains) VH: EVQLVESGGGLVKPGGSLRLSCAASGFTFSSYDMSWVRQAPGKGLEWVATISDGGGYIYYSDSVKGRFTISRDNAKNSLYLQMNSLRAEDTAVYYCAREFGKRYALDYWGQGTTVTVSS VL: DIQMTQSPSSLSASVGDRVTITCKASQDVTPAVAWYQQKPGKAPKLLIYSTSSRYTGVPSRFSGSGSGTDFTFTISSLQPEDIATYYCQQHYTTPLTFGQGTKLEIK : koff was 0.000251
